- System: UO-31 renal
- Protocol Details: NCI-60 one-dose screen, 48 h
- Assay Context: 10 µM unless noted
The panel holds about 83,000 compounds, 20% with a hit somewhere; the sample as a whole holds those more often. Activity calls are given as the source filed them. Rule for the calls: active = growth percent below 10; inactive = the rest.
Respond with a class label; see T (active), F (inactive)

What call does the record list for "COc1cc(/C=C2\C(=O)Nc3ccccc32)cc(OC)c1O" ?
F

Thanks! And "O=C(N/N=C/c1ccc(F)cc1)c1[nH]c2ccc(I)cc2c1-c1ccccc1" ?
F

Thanks! And "Clc1cccc(Cl)c1Nc1ccc2nnc(-c3ccncc3)n2n1" ?
F

Thanks! And "Clc1ccccc1Nc1ccc2nnc(-c3ccncc3)n2n1" ?
F

Thanks! And "COc1ccc(/C=N\N2CCOCC2)cc1OC1CCCC1" ?
F

Thanks! And "Nc1nc(N)c(N=Nc2c(Br)cc(S(N)(=O)=O)cc2Br)c(N)n1" ?
F

Thanks! And "O=C(CCCCCCC(=O)Nc1ccc2c(c1)/C(=C/c1ccc[nH]1)C(=O)N2)NO" ?
T

Thanks! And "COc1ccc(/C=C(\C#N)c2cc3ccccc3n2C)cc1" ?
F

Thanks! And "CC1(C)N=C(N)N=C(N)N1c1cccc(/C=C/C=C/c2cccc([N+](=O)[O-])c2)c1" ?
F

Thanks! And Cc1ccc(S(=O)(=O)N2CCc3ccc(O)c4c3C2CCc2ccccc2-4)cc1 (stereo not given) ?
F

Thanks! And "COC(=O)c1c2c(c(C)[n+]([O-])c1C)C(=O)C(NCc1ccc(O)cc1)=CC2=O" ?
T

Thanks! And "ONc1nc(NO)c2[nH]cnc2n1" ?
F

Thanks! And O=C(NCc1ccc(F)cc1)C1CN(c2ccc(Cl)cc2)N(c2ccc(Cl)cc2)C1=O (stereo not given) ?
F

Thanks! And C=C(C)CCCC(C)CC#N (stereo not given) ?
F

Thanks! And "CCCCC(=O)N/N=C/c1cc(I)cc(I)c1O" ?
F

Values compiled from PubChem BioAssay (NCI).
